Origin of values: paper PMC12030706

Experiment: Ex vivo biodistribution in PC-3 tumor-bearing mice
Details: mouse, blood, Uptake in blood, 1 h post-injection
Numbered stars: 1 amine (or outer) side, 2 acyl side, 3 side chain; on linkers, the order of the positions; unused ones are H or OH. Square brackets hold non-standard residues; d marks the D form. Peptide text beside a SMILES is read from it. * marks the point of attachment. DOTA = O=C(O)CN1CCN(CC(=O)O)CCN(CC(=O)*)CCN(CC(=O)O)CC1; NMeH = CN[C@@H](Cc1c[nH]cn1)C(=O)O; X1 = O=C(CN1CCC(N[*:1])CC1)[*:2]; Tle = CC(C)(C)[C@H](N)C(=O)O; Thz = O=C(O)[C@@H]1CSCN1
endpointLabel: tissue uptake at 1 h

{"columns": ["compound", "tissue uptake at 1 h"],
 "data": [
  ["CC(C)C[C@H](NC(=O)[C@H](Cc1cnc[nH]1)N(C)C(=O)CNC(=O)[C@@H](NC(=O)[C@H](C)NC(=O)[C@H](Cc1c[nH]c2ccccc12)NC(=O)[C@H](Cc1c[nH]cn1)NC(=O)[C@@H](Cc1ccccc1)NC(=O)CN1CCC(NC(=O)CN2CCN(CC(=O)O)CCN(CC(=O)O)CCN(CC(=O)O)CC2)CC1)C(C)(C)C)C(=O)N1CSC[C@H]1C(N)=O [[^177Lu]Lu-LW01142, metal not drawn] ({DOTA}-[X1][dF]HWA[Tle]G[NMeH]L[Thz]-NH2)", "1.67 %ID/g"]
]}

GET /values?readout=tissue uptake at 1 h&item= CC(C)C[C@@H](CN1CSC[C@H]1C(N)=O)NC(=O)[C@H](Cc1cnc[nH]1)NC(=O)CN(C)C(=O)[C@@H](NC(=O)[C@H](C)NC(=O)[C@H](Cc1c[nH]c2ccccc12)NC(=O)[C@H](CCC(N)=O)NC(=O)[C@@H](Cc1ccccc1)NC(=O)CN1CCC(NC(=O)CN2CCN(CC(=O)O)CCN(CC(=O)O)CCN(CC(=O)O)CC2)CC1)C(C)C [[^177Lu]Lu-TacsBOMB5, metal not drawn]
1.77 %ID/g

====

Assay: Ex vivo biodistribution in PC-3 tumor-bearing mice
Details: mouse, liver, Uptake in liver, 72 h post-injection
Protocol: SPECT/CT imaging experiments were performed using an MILabs (Houten, The Netherlands) U-SPECT-II/CT scanner with a custom-made ultra-high-sensitivity big mouse collimator (2 mm pinhole size) following previously reported procedures. […] For ex vivo biodistribution studies, the mice were injected with ~2–6 MBq of the radioligand. […] Organs/tissues of interested were collected, weighed, and measured using an automatic gamma counter.
endpointLabel: tissue uptake at 72 h (%ID/g)
Number only, in %ID/g; omit the unit.

GET /values?readout=tissue uptake at 72 h&item= CC(C)C[C@H](NC(=O)[C@H](Cc1cnc[nH]1)N(C)C(=O)CNC(=O)[C@@H](NC(=O)[C@H](C)NC(=O)[C@H](Cc1c[nH]c2ccccc12)NC(=O)[C@H](CCC(N)=O)NC(=O)[C@@H](Cc1ccccc1)NC(=O)CN1CCC(NC(=O)CN2CCN(CC(=O)O)CCN(CC(=O)O)CCN(CC(=O)O)CC2)CC1)C(C)(C)C)C(=O)N1CSC[C@H]1C(N)=O [[^177Lu]Lu-LW01110, metal not drawn]
0.07

====

Assay: Ex vivo biodistribution in PC-3 tumor-bearing mice
Conditions: mouse, kidneys, Uptake in kidneys, 120 h post-injection
Numbered stars: 1 amine (or outer) side, 2 acyl side, 3 side chain; on linkers, the order of the positions; unused ones are H or OH. Square brackets hold non-standard residues; d marks the D form. Peptide text beside a SMILES is read from it. * marks the point of attachment. DOTA = O=C(O)CN1CCN(CC(=O)O)CCN(CC(=O)*)CCN(CC(=O)O)CC1; NMeH = CN[C@@H](Cc1c[nH]cn1)C(=O)O; X1 = O=C(CN1CCC(N[*:1])CC1)[*:2]; Tle = CC(C)(C)[C@H](N)C(=O)O; Thz = O=C(O)[C@@H]1CSCN1
endpointLabel: tissue uptake at 120 h (%ID/g)
Number only, in %ID/g; omit the unit.

Consider the reported tissue uptake at 120 h for these compounds:
{"columns": ["compound", "readoutUnit", "tissue uptake at 120 h"],
 "data": [
  ["CC(C)C[C@H](NC(=O)[C@H](Cc1cnc[nH]1)N(C)C(=O)CNC(=O)[C@@H](NC(=O)[C@H](C)NC(=O)[C@H](Cc1c[nH]c2ccccc12)NC(=O)[C@H](CCC(N)=O)NC(=O)[C@@H](Cc1ccccc1)NC(=O)CN1CCC(NC(=O)CN2CCN(CC(=O)O)CCN(CC(=O)O)CCN(CC(=O)O)CC2)CC1)C(C)(C)C)C(=O)N1CSC[C@H]1C(N)=O [[^177Lu]Lu-LW01110, metal not drawn]", "%ID/g", 0.2],
  ["CC(C)C[C@H](NC(=O)[C@H](Cc1cnc[nH]1)N(C)C(=O)CNC(=O)[C@@H](NC(=O)[C@H](C)NC(=O)[C@H](Cc1c[nH]c2ccccc12)NC(=O)[C@H](Cc1c[nH]cn1)NC(=O)[C@@H](Cc1ccccc1)NC(=O)CN1CCC(NC(=O)CN2CCN(CC(=O)O)CCN(CC(=O)O)CCN(CC(=O)O)CC2)CC1)C(C)(C)C)C(=O)N1CSC[C@H]1C(N)=O [[^177Lu]Lu-LW01142, metal not drawn] ({DOTA}-[X1][dF]HWA[Tle]G[NMeH]L[Thz]-NH2)", "%ID/g", 0.3]
]}

# ---- query compound ----
GET /values?readout=tissue uptake at 120 h&item= CC(C)C[C@@H](CN1CSC[C@H]1C(N)=O)NC(=O)[C@H](Cc1cnc[nH]1)NC(=O)CN(C)C(=O)[C@@H](NC(=O)[C@H](C)NC(=O)[C@H](Cc1c[nH]c2ccccc12)NC(=O)[C@H](CCC(N)=O)NC(=O)[C@@H](Cc1ccccc1)NC(=O)CN1CCC(NC(=O)CN2CCN(CC(=O)O)CCN(CC(=O)O)CCN(CC(=O)O)CC2)CC1)C(C)C [[^177Lu]Lu-TacsBOMB5, metal not drawn]
0.39
